These data points were gathered from paper PMC10635324.

assay: Plasma pharmacokinetics of veliparib, LC-MS/MS, noncompartmental analysis; type: in vivo, patients; details: human, plasma, oral, 10 mg, Single dose 10 mg Veliparib, n=16; read-out: Cmax, maximum drug concentration in plasma
Property label: Cmax (ng/mL)
Just the number please, in ng/mL, no unit attached.

Please fill in: Cmax reported for C[C@]1(c2nc3c(C(N)=O)cccc3[nH]2)CCCN1 = 50.3
